B1: TOR1AIP2 (parent)
chain: SPGHSSAGQEGEDTLRRRLLAPEA

Variants of: B1
Test: protein stability index of a GFP-peptide fusion (GPS, HEK-293T) (PSI 1-6); higher = more stable;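 note: lentivirally expressed fusions sorted by FACS into six bins by GFP to DsRed ratio, PSI derived from sequencing read proportions per bin multiplied by bin number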
Conditions: c terminus: a fixed tail appended
Property Label: protein stability index
One number for each entry.

# Mutation Label, Property Label, Numeric Readout
rows = [
    ("R17N", "protein stability index", 4.67),
    ("T14N", "protein stability index", 3.63),
    ("R17T", "protein stability index", 4.58),
    ("L19V", "protein stability index", 4.9),
    ("E10M", "protein stability index", 3.58),
    ("E10I", "protein stability index", 3.63),
    ("S6Q", "protein stability index", 4.65),
    ("H4G", "protein stability index", 4.08),
    ("G8A", "protein stability index", 4.24),
    ("R17I", "protein stability index", 3.81),
]

Need protein stability index for each of these variants.
1. R18K
2. S1I
3. S1R

[4.83, 4.92, 4.05]
